Below, each of the compounds is paired with its reported IC50 value.
Target: hP2X2/3H (Homo sapiens, UniProt P56373+Q9UBL9)
Construct: expressed in transfected cells; host or cells: e.g. HEK293 or 1321N1
Sequence (Q9UBL9 1-471): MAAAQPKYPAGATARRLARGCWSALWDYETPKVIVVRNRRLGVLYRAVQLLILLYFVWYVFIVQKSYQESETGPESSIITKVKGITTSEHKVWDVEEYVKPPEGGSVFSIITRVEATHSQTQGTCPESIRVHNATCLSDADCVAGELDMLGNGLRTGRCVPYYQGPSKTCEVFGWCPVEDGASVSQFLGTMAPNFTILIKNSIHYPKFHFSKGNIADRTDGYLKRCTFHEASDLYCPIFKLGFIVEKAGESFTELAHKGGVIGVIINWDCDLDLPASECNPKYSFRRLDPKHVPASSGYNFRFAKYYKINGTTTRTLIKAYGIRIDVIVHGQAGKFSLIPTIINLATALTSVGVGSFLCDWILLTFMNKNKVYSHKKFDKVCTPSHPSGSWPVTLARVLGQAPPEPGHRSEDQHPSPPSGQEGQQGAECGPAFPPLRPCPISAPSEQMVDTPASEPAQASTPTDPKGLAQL
Sequence (P56373 1-397): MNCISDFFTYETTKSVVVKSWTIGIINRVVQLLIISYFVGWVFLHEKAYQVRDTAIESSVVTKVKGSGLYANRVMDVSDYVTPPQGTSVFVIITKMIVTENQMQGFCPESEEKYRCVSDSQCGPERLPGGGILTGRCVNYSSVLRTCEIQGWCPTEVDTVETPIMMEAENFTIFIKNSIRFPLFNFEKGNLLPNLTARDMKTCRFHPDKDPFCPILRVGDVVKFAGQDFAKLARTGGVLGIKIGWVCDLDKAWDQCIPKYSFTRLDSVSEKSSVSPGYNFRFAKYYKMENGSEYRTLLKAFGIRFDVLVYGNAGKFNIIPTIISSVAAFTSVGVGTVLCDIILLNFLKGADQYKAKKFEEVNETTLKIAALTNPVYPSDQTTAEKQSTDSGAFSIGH
Test: Calcium uptake assay (P2X antagonist assay), P2X2/3 heteromer
Assay type: cell-based
Settings: Ca influx (calcium uptake assay), hP2X2/3H; read-out: IC50 hP2X2/3H
Description: The human P2X2/3 chimera clone is created as described by Neelands et al, and then cloned into an expression vector as above. […] Functional activity of compounds at the P2X receptor is determined by measuring their ability to inhibit agonist-induced calcium influx. […] At the start of each screening day, the agonist EC50 is determined. Compound % inhibition or IC50s are subsequently determined using a predetermined agonist concentration (EC50-90 depending on cell line) as a stimulus. […]

// worked examples, IC50 included
| compound | readout value |
| --- | --- |
| Cc1ccc(-c2cc(C(=O)N[C@H](C)c3ccc(C)nc3)cc(S(=O)(=O)C3CCCC3)c2)cc1 | < 100 nM |
| Cc1ccc(-c2cc(Oc3nccs3)cc(C(=O)NCc3ccc(C)nc3)c2)cc1 | 100 to 500 nM |
| Cc1ccc(-c2cc(OCC3CNCCO3)cc(C(=O)N[C@H](C)c3ccc(C)nc3)c2)cc1 (some centres unmarked) | 100 to 500 nM |
| COCCOc1cc(C(=O)N[C@H](C)c2cnc(C)nc2)cc(-c2ccc(C)cn2)c1 | 100 to 500 nM |
| Cc1ccc(-c2cc(Oc3nccs3)cc(C(=O)N[C@H](C)c3ccc(C)nc3)c2)nc1 | < 100 nM |

# query: IC50 of entry Cc1ccc(-c2cc(OCCO)cc(C(=O)N[C@H](C)c3ccc(C)nc3)c2)nc1 100 to 500 nM

# query: IC50 of entry Cc1ccc(-c2cc(C(=O)NCc3ccc(C)nc3)cc(C(O)CN3CCOCC3)c2)cc1 (centres unmarked) < 100 nM

# query: IC50 of entry Cc1ccc(-c2cc(C(=O)N[C@H](C)c3cnc(C)nc3)cc(C(O)c3ccccn3)c2)c(C#N)c1 (some centres unmarked) < 100 nM
